# Tested on: Calu-3
# experimental-details: cell viability relative to DMSO; higher = less toxic
# test-settings: 72 h; 10000 nM
value-type: cell viability
In your response, put the unit directly after the numeric value.

Some solved cases for reference:
CC(C)(C)CC(C)(C)c1cc(Cc2cc(C(C)(C)CC(C)(C)C)cc(-n3nc4ccccc4n3)c2O)c(O)c(-n2nc3ccccc3n2)c1 [bisoctrizole] :: 103%
CN(C)CCN(Cc1cccs1)c1ccccn1 [methapyrilene] :: 89.7%

Return the recorded cell viability value; entry: COc1cc(N)c(Cl)cc1C(=O)CCC1CCN(CCNS(C)(=O)=O)CC1
95.9%

Return the recorded cell viability value; entry: CC(C(=O)O)c1ccc(C(=O)c2cccs2)cc1 (stereo unspecified) [suprofen]
89.8%

---

# System: Vero E6
# experimental-details: drug sensitivity score (DSS) for viability; higher = more toxic; extreme values may be limits of the assay
# test-settings: 72 h
value-type: drug sensitivity score
Lab note: jot down the number only; don't add units.

Some solved cases for reference:
O=C(O)CSCC(=O)NC1CCSC1=O (centres undefined) [erdosteine] :: 0
CC(C)NCC(O)COc1cccc2ccccc12 (centres undefined) [propranolol] :: 0

Return the recorded drug sensitivity score value; entry: CC1(C)S[C@@H]2[C@H](NC(=O)[C@H](NC(=O)N3CCNC3=O)c3ccccc3)C(=O)N2[C@H]1C(=O)O [azlocillin]
0

Return the recorded drug sensitivity score value; entry: CC1=C(CCC(=O)O)c2cc3[nH]c(cc4nc(cc5[nH]c(cc1n2)c(C)c5C(C)O)C(C)=C4C(C)O)c(C)c3CCC(=O)O (centres undefined) [hematoporphyrin]
0.4

Return the recorded drug sensitivity score value; entry: CNC(=O)CN1CCC(Oc2cc3c(Nc4cccc(Cl)c4F)ncnc3cc2OC)CC1 [AZD8931]
10.2

Return the recorded drug sensitivity score value; entry: CC(O)CN1CCN(CC(=O)[O-])CCN(CC(=O)[O-])CCN(CC(=O)[O-])CC1.[Gd+3] (centres undefined) [gadoteridol]
0

---

# Lookup of reported cell viability keyed by entry
# Tested on: Vero E6
# experimental-details: cell viability relative to DMSO; higher = less toxic
# test-settings: 72 h; 1 nM
Reply with just the number (in %).

CC(C(=O)O)c1ccc(C(=O)c2cccs2)cc1 (stereo not drawn) :: 97.7
CC(C)(N)c1nc(-c2ccc(OC(F)(F)F)cc2)c[nH]1 :: 95.9
Cc1nc2ccc(-n3ncc(C(=O)c4cc5ccccc5[nH]4)c3N)cc2[nH]1 :: 96.5
CCC(=O)O[C@H](CC(=O)O)C[N+](C)(C)C [levocarnitine-propionate] :: 106
O=C(Nc1ccc(O)cc1)c1ccccc1O :: 93.2

Return the recorded cell viability value; entry: CCOC(=S)SSC(=S)OCC
97.3

Return the recorded cell viability value; entry: CCc1cccc(CC)c1NC1=NCCN1
98.9

Return the recorded cell viability value; entry: Cc1cc(O)c(C(=O)N[C@@H](C(=O)N[C@@H]2C(=O)N3C(C(=O)O)=C(CSc4nnnn4C)CS[C@H]23)c2ccc(O)cc2)cn1 [cefpiramide]
101

Return the recorded cell viability value; entry: COC(=O)[C@H](Cc1ccc([N+](=O)[O-])cc1)NC(=O)c1cccc2ccccc12
94.4

Return the recorded cell viability value; entry: CCn1c(=O)[nH]c2cc(Cl)c(Cl)cc21
102

Return the recorded cell viability value; entry: Cc1cc(Nc2ncc(Cl)c(Nc3ccccc3S(=O)(=O)C(C)C)n2)c(OC(C)C)cc1C1CCNCC1
99.4
